Consider the following compounds; for each one, report its GI50.
system: SK-MEL-2; test: NCI tumour cell line growth inhibition, 48 h
Calls of active or inactive are those of the source. Rule as the data show it: active = GI50 up to about 1.1 µM and inactive = higher.

compound	quantityKind	endpointValue
CC[C@H](C)C1=C(OC(C)=O)[N@+]2([O-])Oc3ccc(-c4c(OC(C)=O)c(OC(C)=O)c(-c5ccc(OC(C)=O)cc5)c(OC(C)=O)c4OC(C)=O)cc3O[C@]2([C@@H](C)CC)C(=O)N1OC(C)=O	GI50	9.64 µM (inactive)

Please state GI50 for every compound in the list that follows.
1. CCOC1=C(c2ccccc2)N2CCCCC2O1 (stereo not drawn)
2. Cc1cc(C)nc(NS(=O)(=O)c2ccc(NC(=O)c3cccc4c(Nc5ccc(S(=O)(=O)N=C(N)N)cc5)c5ccccc5nc34)cc2)n1

### Response
2.25 µM (inactive)
52.8 µM (inactive)
